- Tgt: human PD-1 / PD-L1-Ig binding on Jurkat cell line over-expressing human PD-1 (Jurkat-PD-1) (Homo sapiens, UniProt Q15116)
- Construct: expressed in transfected cells; host or cells: Jurkat
- Sequence (Q15116 25-288): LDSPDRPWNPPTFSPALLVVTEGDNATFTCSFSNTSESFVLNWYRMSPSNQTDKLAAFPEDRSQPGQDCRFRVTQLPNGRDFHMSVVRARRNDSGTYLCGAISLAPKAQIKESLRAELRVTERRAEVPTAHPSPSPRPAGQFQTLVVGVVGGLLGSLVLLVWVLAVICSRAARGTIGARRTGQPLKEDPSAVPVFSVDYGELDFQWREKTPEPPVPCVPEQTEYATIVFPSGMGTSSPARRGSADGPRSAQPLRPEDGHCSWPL
- Measurement Protocol: Jurkat-PD-1 Cell Binding High-Content Screening Assay (CBA)
- Assay type: cell-based
- Run Conditions: Jurkat-PD-1 cells, PE-labeled PD-L1-Ig 20 nM final; read-out: Jurkat HPD1_PDL1 IC50
- Experimental: Example 3. Jurkat-PD-1 Cell Binding High-Content Screening Assay (CBA) Jurkat-PD-1 Cell Binding High-Content Screening Assay (CBA). Phycoerythrin (PE) was covalently linked to the Ig epitope tag of human PD-L1-Ig and fluorescently-labeled PD-L1-Ig was used for binding studies with a Jurkat cell line over-expressing human PD-1 (Jurkat-PD-1). Briefly, 8×10^3 Jurkat-hPD-1 cells were seeded into 384 well plates in 20 μl of DMEM supplemented with 10% fetal calf serum. […]
Where a SMILES comes first, the peptide text is derived from it. Bridges are numbered along the chain shown (N, C = ends). [ ]: non-standard residue; d: D form. Bip = N[C@@H](Cc1ccc(-c2ccccc2)cc1)C(=O)O; Phe(3-Me) = Cc1cccc(C[C@H](N)C(=O)O)c1; Orn = NCCC[C@H](N)C(=O)O; Dab = NCC[C@H](N)C(=O)O
Measured Property: IC50 (nM)
Give bare numbers, in nM.

Compound: CC(C)C[C@H]1NC(=O)[C@H](CCCN)NC(=O)[C@H](CCC(=O)O)NC(=O)[C@H](Cc2ccc(-c3ccccc3)cc2)NC(=O)[C@H](C(C)C)NC(=O)[C@H](Cc2c[nH]c3ccccc23)NC(=O)[C@H](CC(=O)O)NC(=O)[C@H](Cc2ccc(-c3cccc(C(=O)O)c3)cc2)NC(=O)[C@H](CN)NC(=O)CSC[C@@H](C(=O)N[C@@H](C)C(N)=O)NC(=O)[C@H]([C@@H](C)O)NC(=O)[C@H](C(C)C)NC(=O)[C@H](CC2CCCCC2)NC(=O)[C@H](CCN)NC1=O [Compound 2166]
Units: nM
IC50: 22.7
--
Compound: Cc1cccc(C[C@@H]2NC(=O)[C@H](CC(=O)O)NC(=O)[C@H](Cc3ccc(C(=O)O)cc3)NC(=O)[C@H](Cc3ccncc3)NC(=O)CSC[C@@H](C(=O)N[C@@H](C)C(N)=O)NC(=O)[C@H]([C@@H](C)O)NC(=O)[C@H](C(C)C)NC(=O)[C@H](CC3CCCCC3)NC(=O)[C@H](CCN)NC(=O)[C@@H](CC(C)C)NC(=O)[C@H](CCCN)NC(=O)[C@H](CCCNC(N)=O)NC(=O)[C@H](Cc3ccc(-c4ccccc4)cc3)NC(=O)[C@H](C(C)C)NC2=O)c1
Units: nM
IC50: 4.5
--
Compound: CC(C)C[C@H]1NC(=O)[C@H](CCCN)NC(=O)[C@H](CN)NC(=O)[C@H](Cc2ccc(-c3ccccc3)cc2)NC(=O)[C@H](C(C)C)NC(=O)[C@H](Cc2c[nH]c3ccccc23)NC(=O)[C@H](CC(=O)O)NC(=O)[C@H](Cc2ccc(C(=O)O)cc2)NC(=O)[C@H](Cc2ccc(OCC(=O)O)cc2)NC(=O)CSC[C@@H](C(=O)N[C@@H](C)C(N)=O)NC(=O)[C@H]([C@@H](C)O)NC(=O)[C@H](C(C)C)NC(=O)[C@H](CC2CCCCC2)NC(=O)[C@H](CCN)NC1=O
Units: nM
IC50: 11

Items follow; give IC50 for each.
1. CC(C)C[C@@H]1NC(=O)[C@H](CCN)NC(=O)[C@@H](CC(C)C)NC(=O)[C@H](CCCN)NC(=O)[C@H](C(C)C)NC(=O)[C@H](Cc2ccc(-c3ccccc3)cc2)NC(=O)[C@H](C(C)C)NC(=O)[C@H](Cc2c[nH]c3ccccc23)NC(=O)[C@H](CC(=O)O)NC(=O)[C@H](Cc2ccc(O)cc2)NC(=O)[C@H](CC(N)=O)NC(=O)CSC[C@@H](C(=O)N[C@@H](C)C(N)=O)NC(=O)[C@H](CO)NC(=O)[C@H](C(C)C)NC1=O [Compound 1127] ({CH2CO}-NYDWV[Bip]V[Orn][dL][Dab]LVSCA-NH2; thioether N-14)
2. CC[C@H](C)[C@@H]1NC(=O)[C@H](Cc2ccc(-c3ccccc3)cc2)NC(=O)[C@H](CC(C)C)NC(=O)[C@H](Cc2c[nH]c3ccccc23)NC(=O)[C@H](CC(=O)O)NC(=O)[C@H](Cc2ccc(O)cc2)NC(=O)[C@H](Cc2ccccc2)NC(=O)CSC[C@@H](C(=O)NCC(N)=O)NC(=O)[C@H](CO)NC(=O)[C@H](C(C)C)NC(=O)[C@H](CC(C)C)NC(=O)[C@H](CCN)NC(=O)[C@@H](CC(C)C)NC(=O)[C@H](CCCN)NC1=O [Compound 1230] ({CH2CO}-FYDWL[Bip]I[Orn][dL][Dab]LVSCG-NH2; thioether N-14)
3. CCC(C)[C@@H]1NC(=O)[C@H](Cc2ccc(-c3ccccc3)cc2)NC(=O)[C@H](C(C)C)NC(=O)[C@H](Cc2c[nH]c3ccccc23)NC(=O)[C@H](CC(=O)O)NC(=O)[C@H](Cc2ccc(-c3cccc(C(=O)O)c3)cc2)NC(=O)[C@H](Cc2ccncc2)NC(=O)CSC[C@@H](C(=O)N[C@@H](C)C(N)=O)NC(=O)[C@H]([C@@H](C)O)NC(=O)[C@H](C(C)C)NC(=O)[C@H](CC2CCCCC2)NC(=O)[C@H](CCN)NC(=O)[C@@H](CC(C)C)NC(=O)[C@H](CCCN)NC1=O (some centres unmarked)
4. Cc1cccc(C[C@@H]2NC(=O)[C@H](CC(=O)O)NC(=O)[C@H](Cc3ccc(O)cc3)NC(=O)[C@H](CC(N)=O)NC(=O)CSC[C@@H](C(N)=O)NC(=O)[C@H]([C@@H](C)O)NC(=O)[C@H](C(C)C)NC(=O)[C@H](CC(C)C)NC(=O)[C@H](CCN)NC(=O)[C@@H](CC(C)C)NC(=O)[C@H](CCCN)NC(=O)[C@H](C(C)C)NC(=O)[C@H](Cc3ccc(-c4ccccc4)cc3)NC(=O)[C@H](C(C)C)NC2=O)c1 [Compound 1648] ({CH2CO}-NYD[Phe(3-Me)]V[Bip]V[Orn][dL][Dab]LVTC-NH2; thioether N-14)
5. CC(C)C[C@@H]1NC(=O)[C@H](CCN)NC(=O)[C@@H](CC(C)C)NC(=O)[C@H](CCCN)NC(=O)[C@H](CCCNC(=N)N)NC(=O)[C@H](Cc2ccc(-c3ccccc3)cc2)NC(=O)[C@H](C(C)C)NC(=O)[C@H](Cc2c[nH]c3ccccc23)NC(=O)[C@H](CC(=O)O)NC(=O)[C@H](Cc2ccc(O)cc2)NC(=O)[C@H](CC(N)=O)NC(=O)CSC[C@@H](C(=O)N[C@@H](C)C(N)=O)NC(=O)[C@H]([C@@H](C)O)NC(=O)[C@H](C(C)C)NC1=O [Compound 1005] ({CH2CO}-NYDWV[Bip]R[Orn][dL][Dab]LVTCA-NH2; thioether N-14)

Out:
[15, 18.1, 32.1, 97, 35.8]
